protocolNotes: gradient 5% acetonitrile 3 min, to 50% in 2 min, to 85% in 15 min, held 3 min, 100 µL/min
conditionsUsed: column: Zorbax Extend-C18 2.1 x 50 mm; eluents: water / acetonitrile, 0.1% formic acid
RP-LC retention time reference
metric: RP-LC retention time

COc1ccc(Cl)cc1S(=O)(=O)N1C[C@@H]2C[C@H]1C[C@@H]2NC(=O)c1ccccc1 : 873 s
CC(C)n1cnnc1-c1nn(C)c2c1CN(C(=O)CC1CCCC1)CC2 : 732 s
COc1ccccc1-c1nc(Cn2nnc(-c3nc(-c4ccc(SC)cc4)no3)c2C)c(C)o1 : 1180 s

====

protocolNotes: gradient 5% acetonitrile 3 min, to 50% in 2 min, to 85% in 15 min, held 3 min, 100 µL/min
conditionsUsed: column: Zorbax Extend-C18 2.1 x 50 mm; eluents: water / acetonitrile, 0.1% formic acid
Some molecules, each annotated with its measured RP-LC retention time.
metric: RP-LC retention time (s)

O=C(NC1CCCC1)c1cc(N2CCCC2)n2nccc2n1 : 908
O=C(CSc1ncnc2c1oc1ccccc12)Nc1ccc(F)cc1F : 934
O=S(=O)(Cc1cccc(Cl)c1)NCCc1noc(-c2ccccc2)n1 : 971
CCOC(=O)c1c(C)[nH]c(C(=O)N2CCCC(C(=O)NCc3ccc(F)cc3)C2)c1C (configuration not stated) : 803
c1ccc(CCc2nc(-c3ccnc(N4CCOCC4)c3)no2)cc1 : 919
COC(=O)C1=CN(c2ccc(Br)cc2)c2ccccc2S1(=O)=O : 908
O=C(c1cccc2c1CCN2C(=O)c1ccc(F)cc1)N1CCOCC1 : 704
CCCNC(=O)c1n[nH]c2c1CCCCCC2 : 776
CCc1ccccc1S(=O)(=O)N1CCc2nc(-c3ccc(OC)cc3)ncc2C1 : 1150
CCOC(=O)CNC(=O)N1CCN(c2nc3ccccc3nc2C(F)(F)F)CC1 : 881
Cc1ccc(CNC(=O)C2CCN(S(=O)(=O)c3cc(-c4noc(C5CC5)n4)cs3)CC2)cc1 : 998
Cc1ccc(-c2nc(-c3ccc(S(=O)(=O)N4CCC(C(=O)N5CCCC5)CC4)cc3)no2)cc1F : 1110
COc1ccccc1NC(=O)C1C(=O)NC2(C)CC1c1ccccc1O2 (configuration not stated) : 905
CC(C)c1noc(-c2ccn3c(CC(=O)N4CCc5ccccc5C4)nnc3c2)n1 : 822
Cc1ccccc1OCC(=O)Nc1ccc2c(c1)Sc1ncccc1C(=O)N2C(C)C : 972
CC(=O)N1c2ccc(S(=O)(=O)N3CCCCCC3)cc2CC1C(=O)NCc1ccccc1Cl (configuration not stated) : 950
Cc1nc(-c2ccccn2)cc2nn(CC(=O)N3CCCc4ccccc43)c(=O)n12 : 789
Cc1ccc(-c2cc3c(=O)n(Cc4noc(CN5CCC(C)CC5)n4)ccn3n2)cc1 : 713
Cc1ccc(CNC(=O)CCc2c(C)nn(-c3cc(N4CCCCC4)ncn3)c2C)o1 : 882
Cc1cccc(OCC(=O)N2CCC3(C2)C(=O)N(C)c2ccccc23)c1 (configuration not stated) : 825
CCN(CC)CCCC(C)NC(=O)c1ccc2c(c1)C(=O)c1ccccc1C2=O (configuration not stated) : 671
O=C(Nc1ccccc1C(F)(F)F)N1CCc2nc(-c3ccccc3)ncc2C1 : 948
COc1ccc(C)cc1NC(=O)N1CCc2nc[nH]c2C1 : 592
COc1ccc(NC(=O)N2CCC3(C2)C(=O)Nc2ccccc23)cc1OC (configuration not stated) : 676
O=C(COc1ccc(Cl)cc1Cl)N(Cc1ccccn1)Cc1ccco1 : 830
O=C(NC1CCN(c2cc(-c3ccc(Cl)cc3)[nH]n2)C1)c1ccccc1 (configuration not stated) : 712
Cc1nnc2ccc(S(=O)(=O)N(Cc3ccccc3)c3ccc(Cl)cc3)cn12 : 930
